Molecular target: Urease subunit alpha/Urease subunit beta (Helicobacter pylori (strain ATCC 700392 / 26695) (Campylobacterpylori), UniProt P69996)
Sequence (P69996 whole entry): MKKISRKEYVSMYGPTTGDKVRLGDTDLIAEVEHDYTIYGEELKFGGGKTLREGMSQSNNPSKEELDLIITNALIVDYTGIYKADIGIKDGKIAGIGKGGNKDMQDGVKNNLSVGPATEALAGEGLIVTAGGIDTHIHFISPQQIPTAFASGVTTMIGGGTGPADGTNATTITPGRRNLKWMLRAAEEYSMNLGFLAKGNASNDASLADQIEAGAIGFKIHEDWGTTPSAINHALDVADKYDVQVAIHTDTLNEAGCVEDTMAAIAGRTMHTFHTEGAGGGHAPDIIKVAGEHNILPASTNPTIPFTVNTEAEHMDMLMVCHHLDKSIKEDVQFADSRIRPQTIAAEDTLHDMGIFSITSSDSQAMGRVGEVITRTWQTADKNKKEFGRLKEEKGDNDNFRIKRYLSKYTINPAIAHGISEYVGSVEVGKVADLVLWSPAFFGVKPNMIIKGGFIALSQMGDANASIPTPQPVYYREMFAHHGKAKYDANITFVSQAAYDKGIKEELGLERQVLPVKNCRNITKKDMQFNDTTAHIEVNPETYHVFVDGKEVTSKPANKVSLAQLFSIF
Sequence (P14916 whole entry, further chain): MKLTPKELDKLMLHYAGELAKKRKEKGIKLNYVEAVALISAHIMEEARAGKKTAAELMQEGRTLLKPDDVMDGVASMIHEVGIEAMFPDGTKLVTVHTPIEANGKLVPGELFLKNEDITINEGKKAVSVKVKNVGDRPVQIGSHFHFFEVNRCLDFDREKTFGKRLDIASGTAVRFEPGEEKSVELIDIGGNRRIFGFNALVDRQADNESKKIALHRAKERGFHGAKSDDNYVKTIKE
Experiment: Inhibition of Helicobacter pylori ATCC 43504 urease in presence of 0.4 mM dithiothreitol after 3 hrs pre-incubation
Entries and their pIC50
# pIC50: negative log10 of molar concentration; output just the value

>>> obs_value("Oc1ccc(CCc2ccc(O)c(O)c2O)cc1")
4.28

(Q) Would you kindly share the measured pIC50 for CC(=O)NO [ACETOHYDROXAMIC ACID] ?
(A) 4.74

----------
Target: Urease subunit alpha/Urease subunit beta (Helicobacter pylori (strain ATCC 700392 / 26695) (Campylobacterpylori))
Assay: Inhibition of Helicobacter pylori ATCC 43504 urease in presence of 0.4 mM 2-mercaptoethanol after 3 hrs pre-incubation
measurement-type: IC50 (µM)
The answer is to be given in µM; state only the numeric part.

>>> obs_value("Oc1ccc(CCc2ccc(O)c(O)c2O)cc1")
71

(Q) Would you kindly share the measured IC50 for CC(=O)NO [ACETOHYDROXAMIC ACID] ?
(A) 19

----------
Target: Urease subunit alpha/Urease subunit beta (Helicobacter pylori (strain ATCC 700392 / 26695) (Campylobacterpylori), UniProt P69996)
Assay: Inhibition of Helicobacter pylori ATCC 43504 urease after 3 hrs pre-incubation
Entries and their IC50
The answer is to be given in µM; state only the numeric part.

>>> obs_value("CC(=O)NO [ACETOHYDROXAMIC ACID]")
17

(Q) Would you kindly share the measured IC50 for O=c1c(-c2ccc(O)cc2)coc2c(O)c(O)ccc12 ?
(A) 140

(Q) Next compound: Oc1ccc(CCc2ccc(O)c(O)c2O)cc1
(A) 30

----------
Target: Urease subunit alpha/Urease subunit beta (Helicobacter pylori (strain ATCC 700392 / 26695) (Campylobacterpylori)) (UniProt P69996+P14916)
Sequence (P14916 whole entry, looked up): as the sequence (P14916 whole entry, further chain) above
Sequence (P69996 whole entry, looked up): as the sequence (P69996 whole entry) above
Assay: Inhibition of Helicobacter pylori ATCC 43504 urease at 400 ug/mL after 3 hrs pre-incubation
Entries and their inhibition
The answer is to be given in %; state only the numeric part.

Use the examples below as a reference point.
>>> obs_value("COc1ccc(CC(=O)c2ccc(O)cc2O)cc1")
14
>>> obs_value("CC(=O)c1ccc(O)c(O)c1")
41

(Q) Would you kindly share the measured inhibition for COc1ccc(CC(=O)c2ccc(O)c(O)c2O)cc1 ?
(A) 44

----------
Molecular target: Urease subunit alpha/Urease subunit beta (Helicobacter pylori (strain ATCC 700392 / 26695) (Campylobacterpylori)) (UniProt P69996+P14916)
Assay: Inhibition of Helicobacter pylori ATCC 43504 urease at 400 ug/mL after 3 hrs pre-incubation
measurement-type: inhibition (%)
The answer is to be given in %; state only the numeric part.

Use the examples below as a reference point.
>>> obs_value("CC(=O)c1ccc(O)cc1O")
14
>>> obs_value("Oc1ccc(CCc2ccc(O)c(O)c2O)cc1")
94.5
>>> obs_value("O=C(Cc1ccc(O)cc1)c1ccc(O)cc1O")
16
>>> obs_value("O=C(Cc1ccc(O)cc1)c1ccc(O)c(O)c1")
39
>>> obs_value("CC(=O)c1ccc(O)c(O)c1O")
38

(Q) Would you kindly share the measured inhibition for COc1c(O)cc(O)c(C(=O)Cc2ccc(O)cc2)c1O ?
(A) 17

(Q) Next compound: O=c1c(-c2ccc(O)cc2)coc2c(O)c(O)ccc12
(A) 81.7

(Q) Next compound: COc1ccc(CC(O)c2ccc(OC)c(OC)c2O)cc1 (centres undefined)
(A) 42

(Q) Next compound: O=C(Cc1ccc(O)cc1)c1ccc(O)c(O)c1O
(A) 51
